# Tested on: TDF;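 also: TDF is a line of transformed human dermal fibroblasts of mesenchymal origin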
# Assay: H1.0 immunofluorescence intensity relative to DMSO (% of DMSO); higher = stronger H1.0 induction, active = 120 or more
# Applied Conditions: concentration: 10 µM; 24 h
Note to self: class labels come from recorded H1.0 immunofluorescence intensity, ranges listed here: band 1 (below 90), band 2 (90 to below 100), band 3 (100 or more)

Molecule: NC1CC1c1ccccc1 (centres undefined)
Assigned Class: band 3

Molecule: CC=C1CC(C)C(O)(CO)C(=O)OCC2=CCN3CCC(OC1=O)C23 (centres undefined)
Assigned Class: band 2

Molecule: CCC1CN2CCc3cc(OC)c(OC)cc3C2CC1CC1NCCc2cc(OC)c(OC)cc21.Cl.Cl (centres undefined)
Assigned Class: band 3

Asked: State the band of Cl.NCC#Cc1ccccc1 [3-Phenylpropargylamine hydrochloride]
Given back: band 1
